Recorded IC50, one value per entry.
Molecular target: recombinant WT HIV-1 RT (Human immunodeficiency virus type 1 group M subtype B, UniProt P03367)
Construct: The p66/p51 HIV-1 RT heterodimer engineered with a N-terminal histidine tag; His tag (histidine tag) (N); made in house; host or cells: Escherichia coli strain M15 (vector pRT6H-PR)
Test: biochemical
Conditions: RT Inhibition—IC50 ± SEM, WT (PicoGreen assay), WT RT DDDP activity; nonradioactive PicoGreen assay
All answers are understood in µM, so give the number only.

Consider the following illustrative entries.
INSERT INTO results (compound, assaymetric, valueunits, result) VALUES
  ('Cc1ccnc2c1NC(=O)c1cccnc1N2C1CC1 [Nevirapine, nevirapine, reference compound]', 'IC50', 'µM', 0.44),
  ('CCOC(=O)c1cnn2c(C)ccc(Br)c12 [compound 9]', 'IC50', 'µM', 155);

Req: Annotate the compound O=C(NCCc1ccc(O)cc1)c1cnn2cccc(Br)c12 [compound 22] with its measured IC50.
Resp: 111

Req: Look up and state reported IC50 for CCOC(=O)c1cnn2cc(OC)cc(Br)c12 [compound 10]
Resp: 315

----------
Target: HIV-1 RT Y181C mutant (Human immunodeficiency virus type 1 group M subtype B, UniProt P03367, Y780C)
Construct: The p66/p51 HIV-1 RT heterodimer engineered with a N-terminal histidine tag; His tag (histidine tag) (N)
Experiment: DDDP activity assay, Y181C RT mutant
Details: PicoGreen or 33P radiolabeled assay, n ≥ 2, read-out: RT Inhibition—IC50 ± SEM, Y181C
Reported IC50 values for a set of compounds

Answered examples (2):
INSERT INTO measurements (molsmiles, assaymetric, result) VALUES
  ('CCOC(=O)c1cnn2cccc(Br)c12', 'IC50', '850 µM'),
  ('CCOC(=O)c1cnn2c(C)cccc12', 'IC50', '> 333 µM');

Now take the following compound into account.
Req: Fill in reported IC50 for this entry: CCOC(=O)c1cnn2cccc(C)c12
Resp: > 333 µM

----------
Molecular target: recombinant WT HIV-1 RT (Human immunodeficiency virus type 1 group M subtype B)
Construct: The p66/p51 HIV-1 RT heterodimer engineered with a N-terminal histidine tag; His tag (histidine tag) (N); made in house; host or cells: Escherichia coli strain M15 (vector pRT6H-PR)
Assay: biochemical
Conditions: RT Inhibition—IC50 ± SEM, WT (PicoGreen assay), WT RT DDDP activity; nonradioactive PicoGreen assay
pIC50: −log10 of the molar value.
assayMetric: pIC50

Req: Please report the measured pIC50 for COC(=O)c1cnn2cccc(Br)c12
Resp: < 3.00

Req: Supply pIC50 value. Item: CCOC(=O)c1cnn2c(C)ccc(Cl)c12
Resp: < 3.00

Req: Let me know recorded pIC50 for CCOC(=O)c1cnn2c(C)ccc(F)c12 , thanks.
Resp: < 3.00

Req: Please report pIC50 for the following molecule: CCCOC(=O)c1cnn2cccc(Br)c12
Resp: < 3.00

Source of measurements: paper PMC10095864
